assay: CC50 assay (CellTiter-Glo) in Huh-7 HCV replicon cells; assay type: cell-based, human; details: human, Table 4
valueType: CC50 at 3 days

Recorded CC50 at 3 days for Fc1ccc(CNc2nc(NCC(F)(F)F)c3nc(-c4ccc(F)cc4)cnc3n2)cc1 [Example E] , please?
< 10 µM

Recorded CC50 at 3 days for NS(=O)(=O)c1ccc(CNc2nc(NCC(F)(F)F)c3nc(-c4ccc(C(=O)NC5CC5)cc4)cnc3n2)cc1 [Example H] , please?
> 20 µM

Recorded CC50 at 3 days for NS(=O)(=O)c1ccc(CNc2nc(NCC(F)(F)F)c3nc(-c4ccc(F)c(Cl)c4)cnc3n2)cc1 [Example I] , please?
10 to 20 µM

Recorded CC50 at 3 days for CCOc1nc(NCc2ccc(F)cc2)nc2ncc(-c3ccc(F)cc3)nc12 [Example C] , please?
> 20 µM

Recorded CC50 at 3 days for CCOc1nc(NCc2ccc(S(N)(=O)=O)cc2)nc2ncc(-c3ccc(F)cc3)nc12 [Example G] , please?
> 20 µM

Recorded CC50 at 3 days for NS(=O)(=O)c1ccc(CNc2nc(NCC(F)(F)F)c3nc(-c4ccc(F)cc4)cnc3n2)cc1 [Example D] , please?
> 20 µM

Recorded CC50 at 3 days for CC(Nc1nc(NCC(F)(F)F)c2nc(-c3ccc(F)cc3)cnc2n1)c1ccc(S(N)(=O)=O)cc1 (stereo not shown) [Example F] , please?
< 10 µM

====

assay: CC50 assay (CellTiter-Glo) in Huh-7 HCV replicon cells; format: cell-based, human; conditions: human, Table 6
valueType: CC50 at 3 days

Recorded CC50 at 3 days for "CC(C)Oc1nc(N)nc2ncc(-c3ccc(F)cc3)nc12" , please?
> 20 µM

====

Target: HCV replicon
Test: Anti-HCV replicon assay (EC50, luciferase)
Assay type: cell-based, Hepatitis C virus (HCV)
Settings: Table 1; Huh-7 HCV replicon cells, 3 days, luciferase; read-out: EC50
Description: The anti HCV activity of specifically 2,4,6-trisubstituted pteridine derivatives was tested in a human hepatoma Huh-7 cell line harbouring a HCV replicon. The assay comprised the following steps: […]
Please provide measured EC50 for the entries that follow.

Recorded EC50 for "CCCCCC(=O)N1CCN(c2nc(N)nc3ncc(-c4ccc(OC)c(OC)c4)nc23)CC1" , please?
< 300 nM

Recorded EC50 for "COCCOC(=O)N1CCN(c2nc(N)nc3ncc(-c4ccc(OC)c(OC)c4)nc23)CC1" , please?
< 300 nM

Recorded EC50 for "COc1ccc(-c2cnc3nc(N)nc(N4CCN(C(=O)Cc5cccs5)CC4)c3n2)cc1OC" , please?
< 300 nM

Recorded EC50 for "COc1ccc(OC(=O)N2CCN(c3nc(N)nc4ncc(-c5ccc(OC)c(OC)c5)nc34)CC2)cc1" , please?
< 300 nM

Recorded EC50 for "COc1ccc(-c2cnc3nc(N)nc(N4CCN(C(=O)Nc5ccccc5)CC4)c3n2)cc1OC" , please?
< 300 nM

Recorded EC50 for "COc1ccc(-c2cnc3nc(N)nc(N4CCN(C(=O)c5ccoc5)CC4)c3n2)cc1OC" , please?
300 to 1000 nM

Recorded EC50 for "COc1ccc(-c2cnc3nc(N)nc(N4CCN(C(=O)COc5ccccc5)CC4)c3n2)cc1OC" , please?
< 300 nM

Recorded EC50 for COc1ccc(-c2cnc3nc(N)nc(N4CCN(CC5CCCO5)CC4)c3n2)cc1OC (stereo not shown) , please?
300 to 1000 nM

Recorded EC50 for "COc1ccc(-c2cnc3nc(N)nc(N4CCN(C(=O)Nc5cccc(Cl)c5)CC4)c3n2)cc1OC" , please?
< 300 nM

Recorded EC50 for "COc1ccc(-c2cnc3nc(N)nc(N4CCN(CC(=O)N5CCCC5)CC4)c3n2)cc1OC" , please?
< 300 nM

Recorded EC50 for "COc1ccc(-c2cnc3nc(N)nc(N4CCN(C(=O)OCc5ccccc5)CC4)c3n2)cc1OC" , please?
< 300 nM

Recorded EC50 for "COc1ccc(-c2cnc3nc(N)nc(N4CCN(Cc5ccncc5)CC4)c3n2)cc1OC" , please?
300 to 1000 nM

Recorded EC50 for "CCCCc1ccc(C(=O)N2CCN(c3nc(N)nc4ncc(-c5ccc(OC)c(OC)c5)nc34)CC2)cc1" , please?
< 300 nM

Recorded EC50 for "COc1ccc(N2CCN(c3nc(N)nc4ncc(-c5ccc(OC)c(OC)c5)nc34)CC2)cc1" , please?
300 to 1000 nM

Recorded EC50 for "COc1ccc(-c2cnc3nc(N)nc(N4CCN(C(=O)Cc5ccc(Cl)cc5)CC4)c3n2)cc1OC" , please?
< 300 nM

Recorded EC50 for "COc1ccc(-c2cnc3nc(N)nc(N4CCN(C(=O)Nc5cccc(C(F)(F)F)c5)CC4)c3n2)cc1OC" , please?
< 300 nM

Recorded EC50 for "COc1ccc(-c2cnc3nc(N)nc(N4CCN(C(=O)Nc5cccs5)CC4)c3n2)cc1OC" , please?
< 300 nM

Recorded EC50 for "COc1ccc(-c2cnc3nc(N)nc(N4CCN(Cc5cccc(C)c5)CC4)c3n2)cc1OC" , please?
< 300 nM

Recorded EC50 for "COc1ccc(-c2cnc3nc(N)nc(N4CCN(C(=O)/C=C/c5ccccc5)CC4)c3n2)cc1OC" , please?
< 300 nM

Recorded EC50 for "COCC(=O)N1CCN(c2nc(N)nc3ncc(-c4ccc(OC)c(OC)c4)nc23)CC1" , please?
< 300 nM

Recorded EC50 for "COc1ccc(-c2cnc3nc(NCc4cccs4)nc(N)c3n2)cc1OC" , please?
300 to 1000 nM

Recorded EC50 for "COc1ccc(-c2cnc3nc(N)nc(N4CCN(CC(=O)N(C)c5ccccc5)CC4)c3n2)cc1OC" , please?
< 300 nM

Recorded EC50 for "COc1ccc(-c2cnc3nc(N)nc(N4CCN(C(=O)c5cccs5)CC4)c3n2)cc1OC" , please?
< 300 nM

Recorded EC50 for "COc1ccc(-c2cnc3nc(N)nc(N4CCN(C(=O)Nc5cccc(C)c5)CC4)c3n2)cc1OC" , please?
< 300 nM

Recorded EC50 for "COc1ccc(-c2cnc3nc(N)nc(N4CCN(C(=O)Nc5ccc(F)cc5)CC4)c3n2)cc1OC" , please?
< 300 nM

Recorded EC50 for "COc1ccc(-c2cnc3nc(N)nc(N4CCN(CCOc5ccccc5)CC4)c3n2)cc1OC" , please?
< 300 nM

Recorded EC50 for "COc1ccc(-c2cnc3nc(N)nc(N4CCN(CCc5ccccc5)CC4)c3n2)cc1OC" , please?
< 300 nM

Recorded EC50 for "COc1ccc(-c2cnc3nc(N)nc(N4CCN(CC(=O)N5CCOCC5)CC4)c3n2)cc1OC" , please?
300 to 1000 nM
